# TARGET_OR_TEST_SYSTEM: CHO/hThRβ1 (Homo sapiens, UniProt P10828)
# Construct: The cDNAs encoding the full length human ThRα1 and ThRβ1 were cloned; expressed in transfected cells
# EXPERIMENT_SUMMARY: Reporter cell line (TRAF) assay, agonist activity
# Type: cell-based
# EXPERIMENTAL_SETUP: CHO/hThRβ1 reporter cells, alkaline phosphatase readout after 48 hours
Output YES for β % agonism not less than 90%; output NO otherwise.

Prompt: Would you say CC(C)(C)Cc1nc2cc(Oc3c(Br)cc(OCC(=O)O)cc3Br)ccc2[nH]1 [Example 15] shows β % agonism at minimum 90%?
Response: NO

Prompt: Would you say CC(C)Cc1nc2cc(Oc3c(Br)cc(CC(F)C(=O)O)cc3Br)ccc2[nH]1 (racemic) [Example 10] shows β % agonism at minimum 90%?
Response: YES

Prompt: Would you say Cc1cccc(-c2nc3cc(Oc4c(Br)cc(CCC(=O)O)cc4Br)ccc3[nH]2)c1 [Example 11] shows β % agonism at minimum 90%?
Response: YES

Prompt: Would you say CCCc1nc2cc(Oc3c(Br)cc(OCC(=O)O)cc3Br)ccc2[nH]1 [Example 17] shows β % agonism at minimum 90%?
Response: NO

Prompt: Would you say Cc1nc(-c2nc3cc(Oc4c(Br)cc(CC(F)C(=O)O)cc4Br)ccc3[nH]2)c(C)o1 (stereo not drawn) [Example 32] shows β % agonism at minimum 90%?
Response: NO

###

# TARGET_OR_TEST_SYSTEM: hTRβ (Homo sapiens)
# Sequence (P10828 1-461): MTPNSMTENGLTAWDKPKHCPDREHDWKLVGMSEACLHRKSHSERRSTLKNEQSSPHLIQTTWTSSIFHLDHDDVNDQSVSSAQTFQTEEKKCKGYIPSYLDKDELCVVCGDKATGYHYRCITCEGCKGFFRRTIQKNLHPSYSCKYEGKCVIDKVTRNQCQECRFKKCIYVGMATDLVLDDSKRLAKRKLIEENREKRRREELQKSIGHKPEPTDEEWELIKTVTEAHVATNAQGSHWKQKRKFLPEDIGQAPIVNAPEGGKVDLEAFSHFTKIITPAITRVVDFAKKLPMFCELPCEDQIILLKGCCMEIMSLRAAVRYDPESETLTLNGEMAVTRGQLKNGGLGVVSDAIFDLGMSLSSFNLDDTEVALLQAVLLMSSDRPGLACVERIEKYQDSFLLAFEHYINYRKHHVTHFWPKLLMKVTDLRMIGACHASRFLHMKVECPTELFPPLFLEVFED
QUANTITY_KIND: pIC50
In plain terms, pIC50 is the concentration in mol/L turned into minus its base-10 logarithm.

Prompt: What is its pIC50 for hTRβ (Homo sapiens)? Entry: Cc1cccc(-c2nc3cc(Oc4c(Br)cc(CCC(=O)O)cc4Br)ccc3[nH]2)c1
Response: 8.62

Source: patent US20090318514A1
